target: CDK2 (UniProt P24941); test: Enzyme Assay
The entries below come with measured IC50 values attached.
quantity.kind: IC50

CC(C)n1cnc2c(NCc3ccc(Cl)cc3)nc(NCCN)nc21 ... 0.35 µg/mL
COc1ccc(CNc2nc(N(CC(C)O)CC(C)O)nc3c2ncn3C(C)C)cc1 (stereo not given) ... 0.8 µg/mL
CC(C)n1cnc2c(NCc3ccc(F)cc3)nc(N(CCO)CCO)nc21 ... 0.15 µg/mL
CC(C)[C@H](CO)Nc1nc(NCc2ccc(Cl)cc2)c2ncn(C(C)C)c2n1 ... 0.19 µg/mL
CC(C)[C@H](CO)Nc1nc(NCc2ccc(F)cc2)c2ncn(C(C)C)c2n1 ... 0.06 µg/mL
COc1ccc(CNc2nc(Cl)nc3c2ncn3C(C)C)cc1 ... 4 µg/mL
CC(CO)Nc1nc(NCc2ccc(F)cc2)c2ncn(C(C)C)c2n1 (stereo not given) ... 0.18 µg/mL
CC(C)n1cnc2c(NCc3ccc(-c4ccc(C(F)(F)F)cc4)cc3)nc(N(CCO)CCO)nc21 ... 0.6 µg/mL
CSc1ccc(Nc2nc(Cl)nc3c2ncn3C(C)C)cc1 ... 0.6 µg/mL
CC(C)n1cnc2c(NCc3ccc(-c4ccccn4)cc3)nc(N(CCO)CCO)nc21 ... 0.16 µg/mL
COc1ccc(CNc2nc(Cl)nc3c2ncn3CC(C)C)cc1 ... 60 µg/mL
CC(C)n1cnc2c(NCc3ccc(Cl)cc3)nc(N(CCN)CCO)nc21 ... 0.07 µg/mL
COc1ccc(CNc2nc(Cl)nc3c2ncn3CCCC#N)cc1 ... > 60 µg/mL
CC(C)n1cnc2c(NCc3ccc(C(F)(F)F)cc3)nc(N(CCO)CCO)nc21 ... 0.56 µg/mL
COc1ccc(CNc2nc(N(Cc3cccnc3)CC(C)C#N)nc3c2ncn3C(C)C)cc1 (stereo not given) ... 1 µg/mL
CC(C)n1cnc2c(NCc3ccc(Cl)cc3)nc(NC[C@H](C)O)nc21 ... 0.38 µg/mL
CC(=O)C(C)n1cnc2c(NCc3ccc(F)cc3)nc(N(CCO)CCO)nc21 (stereo not given) ... 11 µg/mL
COc1ccc(CNc2nc(Cl)nc3[nH]cnc23)cc1 ... 60 µg/mL
CC(C)n1cnc2c(NCc3ccc(S(N)(=O)=O)cc3)nc(NCCN)nc21 ... 9 µg/mL
CC(C)n1cnc2c(NCc3ccc(Cl)cc3)nc(NCC(O)c3ccccc3)nc21 (stereo not given) ... 0.08 µg/mL

* * *

target: CDK2 (human) (UniProt P24941); assay: Cell-Based Assay; settings: panc1
The entries below are paired with their reported IC50.
quantity.kind: IC50 (µg/mL)

CC(C)n1cnc2c(-c3cccc(OCc4ccccc4)c3)nc(N(CCO)CCO)nc21.CC(C)n1cnc2c(-c3cccc(Oc4ccccc4)c3)nc(N(CCO)CCO)nc21 ... 2.5
CC(C)n1cnc2c(NCc3ccc(-c4ccccc4)cc3)nc(N(CCO)CCO)nc21 ... 1.3
CC(C)n1cnc2c(Nc3ccc(-c4ccccc4)cc3)nc(N(CCO)CCO)nc21 ... 4
COc1ccc(CNc2nc(N3CCOCC3)nc3c2ncn3C(C)C)cc1 ... 5.5

* * *

Catalogue of compounds with associated IC50
molecular target: UniProt P24941; test: Cell-Based Assay; details: ovcar
quantity.kind: IC50 (mg/L)

CC(C)n1cnc2c(Nc3ccc(-c4ccccc4)cc3)nc(N(CCO)CCO)nc21 ... 7
CC(C)n1cnc2c(NCc3ccc(-c4ccccc4)cc3)nc(N(CCO)CCO)nc21 ... 2
CC(C)n1cnc2c(-c3cccc(OCc4ccccc4)c3)nc(N(CCO)CCO)nc21.CC(C)n1cnc2c(-c3cccc(Oc4ccccc4)c3)nc(N(CCO)CCO)nc21 ... 2
COc1ccc(CNc2nc(N3CCOCC3)nc3c2ncn3C(C)C)cc1 ... 4

* * *

target: CDK2 (human) (UniProt P24941); test: Cell-Based Assay; details: mrc 5
The compounds listed here are annotated with their IC50.
quantity.kind: IC50 (µg/mL)

CC(C)n1cnc2c(NCc3ccc(Cl)cc3)nc(N(CCO)CCO)nc21 ... 3
CC(N)CNc1nc(NCc2ccc(Cl)cc2)c2ncn(C(C)C)c2n1 (centres undefined) ... 1
CC(C)n1cnc2c(NCc3ccc(Cl)cc3)nc(N(CCN)CCO)nc21 ... 1
CC(C)n1cnc2c(NCc3ccc(Cl)cc3)nc(NCCN)nc21 ... 1

* * *

molecular target: CDK2 (UniProt P24941); experiment: Enzyme Assay
quantity.kind: IC50 (µg/mL)

COc1ccc(CNc2nc(NCCO)nc3c2ncn3C(C)C)cc1 ... 4
Clc1ccc(COc2nc(Cl)nc3[nH]cnc23)cc1 ... 60
COc1ccc(CNc2nc(N3CC=CC3)nc3c2ncn3C(C)C)cc1 ... 1
CC(C)n1cnc2c(NCC3CCCCC3)nc(Cl)nc21 ... 1
CC(C)n1cnc2c(NCc3ccc(F)cc3)nc(NC[C@H](C)O)nc21 ... 0.22
CC(C)n1cnc2c(Nc3ccc(-c4ccccc4)cc3)nc(N(CCO)CCO)nc21 ... 0.6
COc1ccc(CNc2nc(N(CCO)CCO)nc3c2ncn3C(F)(C(F)(F)F)C(F)(F)F)cc1 ... 40
CC(C)n1cnc2c(NCc3ccc(F)cc3)nc(NC[C@H]3CCCO3)nc21 ... 0.58
Cc1ccc(-c2ccc(CNc3nc(N(CCO)CCO)nc4c3ncn4C(C)C)cc2)cc1 ... 0.6
CC(C)[C@@H](CO)Nc1nc(NCc2ccc(F)cc2)c2ncn(C(C)C)c2n1 ... 0.19

* * *

target: CDK2 (UniProt P24941); assay: Enzyme Assay
Sorting guide: entries reporting IC50 beneath 1 µg/mL go in the condition met pile, the rest go in the condition not met pile.

CC(N)CNc1nc(NCc2ccc(Cl)cc2)c2ncn(C(C)C)c2n1 (centres undefined) ... condition met
CSc1ccc(Nc2nc(N(CCO)CCO)nc3c2ncn3C(C)C)cc1 ... condition met
CC(C)n1cnc2c(NCc3ccc(Cl)cc3)nc(NCCCCCN)nc21 ... condition not met
CC(C)n1cnc2c(Nc3cccc(-c4ccc(C#N)cc4)c3)nc(N(CCO)CCO)nc21 ... condition met
CC(C)n1cnc2c(NCc3ccc(Cl)cc3)nc(NC[C@@H](C)O)nc21 ... condition met
CC(=O)C(C)n1cnc2c(NCc3ccc(Cl)cc3)nc(N(CCO)CCO)nc21 (centres undefined) ... condition not met
CC(C)Cn1cnc2c(NCc3ccc(C(F)(F)F)cc3)nc(N(CCO)CCO)nc21 ... condition not met
COc1ccc(CNc2nc(Cl)nc3c2ncn3CCCCl)cc1 ... condition not met
COc1ccc(CNc2nc(N(CCO)CCO)nc3c2ncn3CCO)cc1 ... condition met
COc1ccc(CNc2nc(Cl)nc3c2ncn3Cc2ccccc2)cc1 ... condition not met
COc1ccc(CNc2nc(Cl)nc3c2ncn3C)cc1 ... condition not met
CC(C)n1cnc2c(NCc3ccc(F)cc3)nc(NC[C@@H](C)O)nc21 ... condition met
CC(C)n1cnc2c(NCc3ccc(Cl)cc3)nc(N[C@H](C)CO)nc21 ... condition met
COc1cccc(CNc2nc(Cl)nc3c2ncn3C(C)C)c1 ... condition met
COc1ccc(CNc2nc(NCC(O)CN)nc3c2ncn3C(C)C)cc1 (centres undefined) ... condition met
CC(C)n1cnc2c(NCc3ccc(Cl)cc3)nc(NC[C@@H](N)Cc3ccccc3)nc21 ... condition not met
CC(C)n1cnc2c(NCc3ccc4c(c3)OCO4)nc(N(CCO)CCO)nc21 ... condition met
CSc1cccc(Nc2nc(N(CCO)CCO)nc3c2ncn3C(C)C)c1 ... condition met
CC(C)n1cnc2c(NCc3ccc(Cl)cc3)nc(N(CCO)CCO)nc21 ... condition met
COc1ccc(CNc2nc(N(CCO)CCO)nc3c2ncn3C)cc1 ... condition not met
COC(=O)c1ccc(Cn2cnc3c(NCc4ccc(OC)cc4)nc(Cl)nc32)cc1 ... condition not met
CC(C)n1cnc2c(NCc3ccc(-c4ccccc4)cc3)nc(N(CCO)CCO)nc21 ... condition met
CC(C)n1cnc2c(NCc3ccc(Cl)cc3)nc(NCCNCCO)nc21 ... condition not met
COc1ccc(CNc2nc(Cl)nc3c2ncn3C(F)(C(F)(F)F)C(F)(F)F)cc1 ... condition not met
CC(C)n1cnc2c(NCc3ccc(-c4ccccc4)cc3)nc(NCC(O)CO)nc21 (centres undefined) ... condition met
CC(C)n1cnc2c(NCc3ccc(F)cc3)nc(NC[C@@H]3CCCO3)nc21 ... condition met
COc1cccc(CNc2nc(N(CCO)CCO)nc3c2ncn3C(C)C)c1 ... condition met
CC(C)n1cnc2c(NCc3ccc(Cl)cc3)nc(N[C@@H](Cc3ccccc3)C(N)=O)nc21 ... condition not met
COc1ccc(CNc2nc(Cl)nc3c2ncn3C(F)(F)F)cc1 ... condition not met
CC(C)n1cnc2c(NCc3ccc(Cl)cc3)nc(N(CCO)CCNCCO)nc21 ... condition met
CC(C)n1cnc2c(NCc3ccc(Cl)cc3)nc(N[C@@H](C)CO)nc21 ... condition met
CC(C)n1cnc2c(NCc3ccc(-c4cccs4)cc3)nc(N(CCO)CCO)nc21 ... condition met
COc1ccc(CNc2nc(Cl)nc3c2ncn3CCC(=O)c2cccc3ccccc23)cc1 ... condition not met
Cn1cnc2c(OCc3ccc(Cl)cc3)nc(Cl)nc21 ... condition not met
OCCNc1nc(NCc2ccccc2)nc2[nH]cnc12 ... condition not met
COc1ccc(CNc2nc(NCCO)nc3c2ncn3C)cc1 ... condition not met
CC(N)CNc1nc(NCc2ccc(F)cc2)c2ncn(C(C)C)c2n1 (centres undefined) ... condition met
FC(F)(F)n1cnc2c(OCc3ccc(Cl)cc3)nc(Cl)nc21 ... condition not met
